LDVP × HR (%) listing for selected molecules.
# Tested on: isolated rat hearts
# EXPERIMENT NOTES: Cardioprotective activity in isolated ischemic heart models of rats (Langendorff, global ischemia/reperfusion)
# TEST PARAMETERS: 10 μM; reperfusion double product as % of pretreatment DP; 30 min global ischemia, 30 min reperfusion

# MOLECULE, LDVP × HR (%)
data = [
    ("COC(=O)c1cc2ccccc2n1[C@H]1c2cc([N+](=O)[O-])ccc2O[C@](C)(C(OC)OC)[C@@H]1O [Example 48]", "79.5%"),
    ("COC(=O)[C@@H]1Cc2ccccc2N1[C@H]1c2cc([N+](=O)[O-])ccc2O[C@](C)(C(OC)OC)[C@@H]1O [Example 6]", "62.2%"),
    ("CCOC(=O)[C@H]1Cc2cc(OC)ccc2N1[C@H]1c2cc([N+](=O)[O-])ccc2O[C@](C)(C(OC)OC)[C@@H]1O [Example 11]", "66.5%"),
]

###

LDH (U/g) listing for selected compounds.
# Tested on: isolated rat hearts
# EXPERIMENT NOTES: Cardioprotective activity in isolated ischemic heart models of rats (Langendorff, global ischemia/reperfusion)
# TEST PARAMETERS: 10 μM; cumulative reperfusion LDH release
# Procedure: Male Sprague-Dawley rats weighing 300-450 g were anesthetized with sodium pentobarbital (100 mg/kg, i.p.). The tail vein was injected with heparin (1,000 U/kg) and then the trachea was intubated. […] Then, baseline contractile function, heart rate (HR), and coronary flow (CF) (extracorporeal electromagnetic flow probe, Narco Bio-System, U.S.A.) were measured. Cardiac contractile function was calculated by subtracting LVEDP from LV peak systolic pressure (LVSP), yielding developed pressure (LVDP). […]

# COMPOUND, U, LDH (U/g)
data = [
    ("CCOC(=O)[C@H]1Cc2cc(F)ccc2N1[C@H]1c2cc([N+](=O)[O-])ccc2O[C@](C)(C(OC)OC)[C@@H]1O [Example 15]", "U/g", 12.0),
    ("CCOC(=O)[C@@H]1Cc2ccccc2N1[C@H]1c2cc([N+](=O)[O-])ccc2O[C@](C)(C(OC)OC)[C@@H]1O [Example 2]", "U/g", 17.8),
    ("CCOC(=O)[C@H]1Cc2ccccc2N1[C@@H]1c2cc([N+](=O)[O-])ccc2O[C@@](C)(C(OC)OC)[C@H]1O [Example 30]", "U/g", 9.2),
    ("COC(=O)c1cc2ccccc2n1[C@H]1c2cc([N+](=O)[O-])ccc2O[C@](C)(C(OC)OC)[C@@H]1O [Example 48]", "U/g", 16.7),
    ("COC(=O)[C@@H]1Cc2ccccc2N1[C@H]1c2cc([N+](=O)[O-])ccc2O[C@](C)(C(OC)OC)[C@@H]1O [Example 6]", "U/g", 10.4),
    ("COC(=O)[C@H]1CCc2ccccc2N1[C@@H]1c2cc([N+](=O)[O-])ccc2O[C@](C)(C(OC)OC)[C@H]1O [Example 56]", "U/g", 18.8),
]

###

# System: isolated rat hearts
# EXPERIMENT NOTES: Cardioprotective activity in isolated ischemic heart models of rats (Langendorff, global ischemia/reperfusion)
# TEST PARAMETERS: 10 μM; reperfusion double product as % of pretreatment DP; 30 min global ischemia, 30 min reperfusion
# Procedure: Male Sprague-Dawley rats weighing 300-450 g were anesthetized with sodium pentobarbital (100 mg/kg, i.p.). The tail vein was injected with heparin (1,000 U/kg) and then the trachea was intubated. […] Then, baseline contractile function, heart rate (HR), and coronary flow (CF) (extracorporeal electromagnetic flow probe, Narco Bio-System, U.S.A.) were measured. Cardiac contractile function was calculated by subtracting LVEDP from LV peak systolic pressure (LVSP), yielding developed pressure (LVDP). […]
# note: exactly 60% is not below, so it is F; use T for LDVP × HR (%) strictly under it

# SMI, CATEGORY LABEL
data = [
    ("CCOC(=O)[C@@H]1Cc2ccccc2N1[C@H]1c2cc([N+](=O)[O-])ccc2O[C@](C)(C(OC)OC)[C@@H]1O", "T"),
    ("CCOC(=O)[C@@H]1Cc2cc(OC)ccc2N1[C@@H]1c2cc([N+](=O)[O-])ccc2O[C@@](C)(C(OC)OC)[C@H]1O", "T"),
    ("CCOC(=O)[C@H]1Cc2cc(F)ccc2N1[C@H]1c2cc([N+](=O)[O-])ccc2O[C@](C)(C(OC)OC)[C@@H]1O", "T"),
    ("CCOC(=O)[C@H]1Cc2cc(OC)ccc2N1[C@@H]1c2cc([N+](=O)[O-])ccc2O[C@@](C)(C(OC)OC)[C@H]1O", "T"),
    ("CCOC(=O)[C@H]1Cc2ccccc2N1[C@@H]1c2cc([N+](=O)[O-])ccc2O[C@@](C)(C(OC)OC)[C@H]1O", "F"),
]
